# Tested on: U2OS
# run.description: Multiplex assay against U2OS
# Type: toxicity, cell-based
# settings: human, 48 h, 1 µM, compound concentration 1 uM, replicate 1
# binarize Total Cell Count: threshold 200 inclusive, high side YES, low side NO

Inquiry: Would you say `CCn1c(=O)c(-c2ccc(-c3cncs3)cc2Cl)cc2cnc(Nc3ccc(N4CCN(C)CC4)cc3)nc21` shows Total Cell Count at minimum 200?
Reply text: NO

Inquiry: Total Cell Count >= 200 for `CCCS(=O)(=O)c1nc(NC2CC2)cc(-c2ccc3c(ccn3C3CC(C)(C)NC(C)(C)C3)c2)n1` ?
Reply text: YES

Inquiry: Answer whether Total Cell Count of `CCOc1cc(C(=O)N2CCC(N3CCN(C)CC3)CC2)ccc1Nc1ncc2c(n1)N(C1CCCC1)c1ccccc1C(=O)N2C` is greater than or equal to 200.
Reply text: NO

Inquiry: Answer whether Total Cell Count of `C=C1/C(=C\C=C2/CCC[C@]3(C)[C@@H]([C@H](C)/C=C/[C@H](C)C(C)C)CC[C@@H]23)C[C@@H](O)C[C@@H]1O` is greater than or equal to 200.
Reply text: NO

Inquiry: Kindly determine if Total Cell Count recorded for `CNc1cc(Oc2cc(C(=O)Nc3cc(N4CCN(C)CC4)cc(C(F)(F)F)c3)ccc2C)ncn1` is above or exactly 200.
Reply text: NO

Inquiry: State whether the measured Total Cell Count reaches 200, counting equality as reaching it, for `S=C(NCCCc1c[nH]cn1)NCCCN(Cc1ccc(Cl)c(Cl)c1)c1ccc(Br)cn1`
Reply text: YES

Inquiry: Could you please find out whether CN(C)C(=O)C(CCN1CCC(O)(c2ccc(Cl)cc2)CC1)(c1ccccc1)c1ccccc1.Cl [LOPERAMIDE HYDROCHLORIDE] has Total Cell Count that meets 200 or exceeds it?
Reply text: YES

====

# Tested on: U2OS
# run.description: Multiplex assay against U2OS
# Format: toxicity, cell-based
# settings: human, 24 h, 1 µM, compound concentration 1 uM, replicate 2
Readings of Population Healthy Nuclei (%) for the listed compounds
Dear colleague, please return just the value in %, with no unit written.

Study these solved cases before continuing.
>  <chemical.string>
CCn1c(=O)c(-c2ccc(-c3cncs3)cc2Cl)cc2cnc(Nc3ccc(N4CCN(C)CC4)cc3)nc21

>  <target.entity>
U2OS

>  <Population Healthy Nuclei (%)>
68

$$$$
>  <chemical.string>
NC(=O)c1cccc(-c2cc(Nc3ccc(OC(F)(F)F)cc3)ncn2)c1

>  <target.entity>
U2OS

>  <Population Healthy Nuclei (%)>
87

$$$$
>  <chemical.string>
CN([C@@H](Cc1ccc(OS(=O)(=O)c2cccc3cnccc23)cc1)C(=O)N1CCN(c2ccccc2)CC1)S(=O)(=O)c1cccc2cnccc12

>  <target.entity>
U2OS

>  <Population Healthy Nuclei (%)>
68

$$$$

Then this compound:
Inquiry: Sample `CCNc1cc(N[C@H]2CC[C@H](O)CC2)nc(Nc2ccc3c(ccn3Cc3ccccc3)c2)n1` — what was its Population Healthy Nuclei (%)?
Reply text: 71

====

Readings of Population Hoechst High Intensity Objects (%) for the listed molecules
# Tested on: U2OS
# run.description: Multiplex assay against U2OS
# Assay type: toxicity, cell-based
# settings: human, 24 h, 1 µM, compound concentration 1 uM, replicate 1
Express your answer as a number followed by its unit.

Past entries and their recorded results:
>  <molecule>
CCN1CCN(c2ccc(Nc3cc(N(C)C(=O)Nc4c(Cl)c(OC)cc(OC)c4Cl)ncn3)cc2)CC1

>  <result>
8%

$$$$
>  <molecule>
CCc1cccc(CC)c1NC(=O)c1nn(C)c2c1CCc1cnc(Nc3ccc(N4CCN(C)CC4)cc3OC)nc1-2

>  <result>
20%

$$$$
>  <molecule>
CN1CCN(C(=O)C(C)(C)c2ccc(C(=O)Nc3cn4cc(-c5cc(C(C)(C)C)cc(C(C)(C)C)c5)ccc4n3)cc2)CC1

>  <result>
9%

$$$$
>  <molecule>
O=C(Nc1ccc(-n2nc(-c3cccnc3)cc2C(F)(F)F)cn1)c1ccc(-c2ccccc2)c(F)c1

>  <result>
5%

$$$$
>  <molecule>
COc1cccc2cc(-c3nc([C@H]4CC[C@H](C(=O)O)CC4)n4ncnc(N)c34)[nH]c12

>  <result>
3%

$$$$

Inquiry: What does the data say about its Population Hoechst High Intensity Objects (%)? Entry: `CCN1CCN(Cc2ccc(Nc3ncc(F)c(-c4cc(F)c5nc(C)n(C(C)C)c5c4)n3)nc2)CC1.CS(=O)(=O)O`
Reply text: 8%

Inquiry: What measured Population Hoechst High Intensity Objects (%) goes with `O=C(Cc1ccc(-c2ccc(OCCN3CCOCC3)cc2)cn1)NCc1ccccc1` ?
Reply text: 8%

Inquiry: Sample CN1C2CCC1CC(OC(c1ccc(F)cc1)c1ccc(F)cc1)C2.Cl (stereo not drawn) — what was its Population Hoechst High Intensity Objects (%)?
Reply text: 3%
